Hello, the source for this data is the supplement of paper PMC10702517, in case you need it.

PROTOCOL DETAILS: chemical recovery from spiked human plasma; higher = better extraction
ASSAY SETUP: pooled human plasma; extraction method: SPE only (HLB 96-well), PES comparison experiment
MEASURED QUANTITY: chemical recovery (%)
Report the value in % with no unit label.

The examples below pair each entry with its known result.
{"COMPOUND": "Clc1ccccc1C(c1ccccc1)(c1ccccc1)n1ccnc1", "chemical recovery, %": 56.3}
{"COMPOUND": "CC(=O)OCC(=O)[C@@]1(O)CC[C@H]2[C@@H]3CCC4=CC(=O)CC[C@]4(C)[C@@]3(F)[C@@H](O)C[C@@]21C [Fludrocortisone-21-acetate]", "chemical recovery, %": 46.7}
{"COMPOUND": "C/C(=N\\C#N)N(C)Cc1ccc(Cl)nc1", "chemical recovery, %": 56.8}
{"COMPOUND": "COCC(C)N(C(=O)CCl)c1c(C)csc1C (stereo not given)", "chemical recovery, %": 46.6}
{"COMPOUND": "O=c1ccc2ccccc2[nH]1 [2-Hydroxyquinoline]", "chemical recovery, %": 52.9}

Query block: Let me know recorded chemical recovery for `Nc1ccc(Sc2ccc(N)cc2)cc1` , thanks.
Result block: 16.5

Query block: Provide one value: measured chemical recovery of CCc1ccc(CCOc2ccc(CC3SC(=O)NC3=O)cc2)nc1 (stereo not given)
Result block: 42.9

Query block: Tell us which chemical recovery value is on record for `Nc1cnn(-c2ccccc2)c(=O)c1Cl`
Result block: 54.9

Query block: Supply chemical recovery value. Item: `Cc1cc(=O)nc(C(C)C)[nH]1`
Result block: 44.3

Query block: # return recorded chemical recovery for entry `Clc1cc(Cl)c(-c2cc(Cl)c(Cl)cc2Cl)cc1Cl`
Result block: 10.3

Query block: Using the record for CCNS(=O)(=O)c1ccccc1C [N-Ethyl-o-toluenesulfonamide] , state its measured chemical recovery.
Result block: 52.6

Query block: Give recorded chemical recovery. CC(Cc1ccc(C(C)(C)C)cc1)CN1C[C@@H](C)O[C@@H](C)C1 (stereo not given in full)
Result block: 43.4

Query block: Find the measured chemical recovery of `O=C1CC2(CCCCC2)CN1` and report it.
Result block: 48.4

Query block: Answer with the recorded chemical recovery for the compound listed here: `CCOP(=S)(OCC)Oc1nc(Cl)c(Cl)cc1Cl`
Result block: 33.3

Query block: Identify the reported chemical recovery for the following entry. O=P(c1ccccc1)(c1ccccc1)c1ccccc1 [Triphenylphosphine oxide]
Result block: 51.6

Query block: Please supply the value of reported chemical recovery for the item `CCCCCCCCn1sccc1=O`
Result block: 21.6

Query block: Give the reported value of chemical recovery for this record: CC(C)C(=O)Nc1ccc([N+](=O)[O-])c(C(F)(F)F)c1 [Flutamide]
Result block: 67.8

Query block: # return recorded chemical recovery for input CC1(C)CC(N)CC(C)(CN)C1 (stereo not given)
Result block: 4.27

Query block: Return chemical recovery (reported value) for this compound: `N#Cc1nn(-c2c(Cl)cc(C(F)(F)F)cc2Cl)c(N)c1S(=O)(=O)C(F)(F)F`
Result block: 67.9

Query block: Please give the documented chemical recovery of `O=C(O)C(F)(F)C(F)(F)C(F)(F)C(F)(F)C(F)(F)C(F)(F)C(F)(F)F`
Result block: 33.6

----------
PROTOCOL DETAILS: chemical recovery from spiked human plasma; higher = better extraction
ASSAY SETUP: pooled human plasma; extraction method: solvent precipitation (ACN + hexane)
Give fulfilled when the value for chemical recovery is at least 80%. Give not fulfilled when it is less.

{"COMPOUND": "Clc1cc(Cl)c(-c2c(Cl)ccc(Cl)c2Cl)cc1Cl", "CLASSIFICATION": "fulfilled"}

Query block: Check this compound for chemical recovery at or above 80%: `CNC(=C[N+](=O)[O-])NCCSCc1ccc(CN(C)C)o1`
Result block: not fulfilled

Query block: Evaluate `Oc1ccc(Cc2ccc(O)cc2)cc1` : chemical recovery at minimum 80%?
Result block: not fulfilled

Query block: Has Cc1cccc(C)c1N(Cn1cccn1)C(=O)C[S+](C)[O-] (stereo not given) a recorded chemical recovery greater than or equal to 80%?
Result block: not fulfilled

Query block: Form field: chemical recovery at least 80%? Entry: `CNC(=O)Oc1cccc2c1OC(C)(C)C2`
Result block: not fulfilled

Query block: Decide: is the reported value of chemical recovery for `c1ccc2c(c1)cc1ccc3cccc4ccc2c1c34` equal to or greater than 80%?
Result block: fulfilled

----------
PROTOCOL DETAILS: chemical recovery from spiked human plasma; higher = better extraction
ASSAY SETUP: pooled human plasma; extraction method: PES+SPE (3 d PDMS equilibration then HLB SPE)
Reported chemical recovery values follow for various compounds
Please reply with the bare figure in % and do not write the unit itself.

Known results for compounds:
{"COMPOUND": "Clc1ccc(C(c2ccc(Cl)cc2)C(Cl)(Cl)Cl)cc1", "chemical recovery [%]": 81.7}
{"COMPOUND": "CC(C)N1C(=O)c2ccccc2NS1(=O)=O", "chemical recovery [%]": 44.5}

Query block: Hello, please tell me recorded chemical recovery for this one: O=c1[nH]c2ccccc2s1 [2-Hydroxybenzothiazole]
Result block: 63.5

Query block: Answer with the recorded chemical recovery for the compound listed here: COC(=O)c1ccccc1C(=O)OC [Dimethylphthalate]
Result block: 46

Query block: # return recorded chemical recovery for input `CN(C)CCC=C1c2ccccc2CCc2ccccc21`
Result block: 0.236

Query block: Give recorded chemical recovery. Cc1cccc(C)c1NC(=O)CS(=O)(=O)O [Dimethachlor CGA369-873]
Result block: 42.4

Query block: Give chemical recovery for `Cc1cnc2c(C(=O)O)c(Cl)ccc2c1`
Result block: 43.6

Query block: Write down chemical recovery measured for item `Nc1ccc(Cc2ccc(N)c(Cl)c2)cc1Cl`
Result block: 28.7

Query block: Give the reported value of chemical recovery for this record: O=C(c1ccc(O)cc1O)c1ccc(O)cc1O [2,2',4,4'-Tetrahydroxybenzophenone]
Result block: 50

Query block: Dear colleague, please send me the reported chemical recovery for `Brc1ccc(Oc2cc(Br)c(Br)cc2Br)c(Br)c1` when you can.
Result block: 53.9

Query block: // fetch chemical recovery given entry `Nc1ccc2nc3ccc(N)cc3nc2c1`
Result block: 11.8

----------
PROTOCOL DETAILS: chemical recovery by SPE of plasma after PDMS sampling; higher = better extraction
ASSAY SETUP: pooled human plasma; extraction method: HLB SPE of plasma after PES; equilibration time (d): 6
MEASURED QUANTITY: chemical recovery by SPE of plasma (%)
Write down the numeric answer in % and omit the unit.

{"COMPOUND": "CCc1cccc(C)c1N(C(=O)CCl)C(C)COC (stereo not given)", "chemical recovery by SPE of plasma / %": 0.323}
{"COMPOUND": "Cc1cccc(C)c1NC(=O)CS(=O)(=O)O", "chemical recovery by SPE of plasma / %": 28.2}

Query block: Specify chemical recovery by SPE of plasma for `Cc1cccc(C)c1N(Cn1cccn1)C(=O)CCl` and stop.
Result block: 0.82

Query block: Name the recorded chemical recovery by SPE of plasma of the compound listed here: `Brc1cc(Br)c(Oc2cc(Br)c(Br)cc2Br)cc1Br`
Result block: 1

Query block: Give reported chemical recovery by SPE of plasma value for `O=C1Cc2cc(CCN3CCN(c4nsc5ccccc45)CC3)c(Cl)cc2N1`
Result block: 25.3

Query block: Determine from records and report chemical recovery by SPE of plasma for CC(CCc1ccccc1)NCC(O)c1ccc(O)c(C(N)=O)c1 (stereo not given)
Result block: 44.8

Query block: Supply recorded chemical recovery by SPE of plasma for `Cc1cc(Cc2ccc(N)c(C)c2)ccc1N` here.
Result block: 2.61

----------
PROTOCOL DETAILS: chemical recovery by SPE of plasma after PDMS sampling; higher = better extraction
ASSAY SETUP: pooled human plasma; extraction method: HLB SPE of plasma after PES; equilibration time (d): 3
Some compounds, each annotated with its measured chemical recovery by SPE of plasma.
Return type: number; implicit unit %.

{"COMPOUND": "c1cc2cccc3c4cccc5cccc(c(c1)c23)c54 [Perylene]", "chemical recovery by SPE of plasma, %": 1.03}
{"COMPOUND": "CCNc1ccc2c(C)cc(=O)oc2c1 [7-(Ethylamino)-4-methylcoumarin]", "chemical recovery by SPE of plasma, %": 4.96}
{"COMPOUND": "CC/C(=N\\OC/C=C/Cl)C1=C(O)CC(C2CCOCC2)CC1=O (configuration not stated) [Tepraloxydim]", "chemical recovery by SPE of plasma, %": 48.3}

Query block: Tell us which chemical recovery by SPE of plasma value is on record for O=S(=O)(O)c1cccc2ccc(O)cc12 [2-Naphthol-8-sulfonic acid]
Result block: 47.9

Query block: Give reported chemical recovery by SPE of plasma value for NC(=O)N=C(N)N [Guanylurea]
Result block: 0.581

----------
PROTOCOL DETAILS: chemical recovery from spiked human plasma; higher = better extraction
ASSAY SETUP: pooled human plasma; extraction method: PES+SPE (3 d PDMS equilibration then HLB SPE)
MEASURED QUANTITY: chemical recovery

Recorded chemical recovery, per entry:
{"COMPOUND": "CN(C)S(=O)(=O)c1ccc(N)cc1 [4-Amino-N,N-dimethylbenzenesulfonamide]", "chemical recovery": "69.6%"}
{"COMPOUND": "COCCN(C(=O)CCl)c1c(C)cccc1C", "chemical recovery": "45.9%"}
{"COMPOUND": "Cc1ccc(N)cc1Cl", "chemical recovery": "56.7%"}
{"COMPOUND": "CC(C)(c1ccc(O)cc1)c1ccc(O)cc1", "chemical recovery": "69.8%"}
{"COMPOUND": "O=C(O)CCCCCCCCC(=O)O", "chemical recovery": "54.6%"}
{"COMPOUND": "CN1CCN2c3ncccc3Cc3ccccc3C2C1 (configuration not stated)", "chemical recovery": "0.274%"}
{"COMPOUND": "CCOC(=O)c1ccc(N)cc1", "chemical recovery": "32.9%"}
{"COMPOUND": "CC(=O)Nc1ccc(S(=O)(=O)Nc2cc(C)on2)cc1", "chemical recovery": "42.7%"}

Query block: Please list chemical recovery recorded for the compound `CC[C@H](C)C(=O)O[C@H]1C[C@H](O)C=C2C=C[C@H](C)[C@H](CC[C@@H](O)C[C@@H](O)CC(=O)O)[C@H]21`
Result block: 31.6%

Query block: Give the reported value of chemical recovery for this record: `O=c1c2ccccc2[nH]c2ccccc12`
Result block: 62.8%

Query block: Indicate the recorded chemical recovery value for this compound: `N=C(N)NC(=O)Cc1c(Cl)cccc1Cl`
Result block: 43.1%

Query block: Fill in chemical recovery for record `CN(C)C(=N)NC(=N)N`
Result block: 1.5%

Query block: Specify reported chemical recovery for the compound shown: `C[N+](C)(C)CCCl`
Result block: 0.51%

Query block: // fetch chemical recovery given entry `Cl[C@H]1[C@H](Cl)[C@@H](Cl)[C@H](Cl)[C@@H](Cl)[C@@H]1Cl`
Result block: 192%

Query block: Report chemical recovery for `O=c1[nH]cc(F)c(=O)[nH]1`
Result block: 0.502%

Query block: Using the record for CC[S+]([O-])CCSP(=O)(OC)OC (configuration not stated) [Demeton-S-methyl-sulfoxide] , state its measured chemical recovery.
Result block: 35.2%

Query block: Look up and state reported chemical recovery for `CCCCOC(=O)c1ccc(O)cc1`
Result block: 51.3%

Query block: Report chemical recovery, nothing else, for this compound: `Nc1cnn(-c2ccccc2)c(=O)c1Cl`
Result block: 44.6%

Query block: Using known records, supply chemical recovery for CC(=O)Nc1c(C)n(C)n(-c2ccccc2)c1=O [N-Acetyl-4-aminoantipyrine]
Result block: 44.5%

Query block: Look up and report measured chemical recovery for this entry: `COC(=O)Nc1nc2ccccc2[nH]1`
Result block: 55.8%

Query block: Give the value of chemical recovery reported for the following: `CCN(CC)C(=O)c1cccc(C(=O)O)c1`
Result block: 42.3%

Query block: Assign chemical recovery to the following record: CC(CCc1ccccc1)NCC(O)c1ccc(O)c(C(N)=O)c1 (configuration not stated)
Result block: 47.4%

Query block: Identify measured chemical recovery associated with CCC(C)n1c(=O)[nH]c(C)c(Br)c1=O (configuration not stated)
Result block: 64.5%

Query block: Return value of chemical recovery for input `O=C(NC1CCCCC1)NC1CCCCC1` , no commentary.
Result block: 54.4%

Query block: // fetch chemical recovery given entry `CN(C)c1ccncc1`
Result block: 0.689%

Query block: Determine its reported chemical recovery: CCNC(=O)[C@@H](C)OC(=O)Nc1ccccc1 [Carbetamide]
Result block: 50.4%

Query block: Look up and state reported chemical recovery for `CNC(=O)Oc1cc(C)c(S(C)(=O)=O)c(C)c1`
Result block: 0.129%

Query block: Consider the compound CC(Cl)CN(C)C (configuration not stated) and give its recorded chemical recovery.
Result block: 0.712%
